Below: a set of entries, each annotated with reported drug sensitivity score.
# Tested on: Caco-2
# assay explanation: drug sensitivity score (DSS) for viability; higher = more toxic; extreme values may be limits of the assay
# experimental setup: 72 h
Keep the answer to the number alone.

Example cases with answers are listed next.
> print(dat)
                                   compound      parameter.measured  readout.value
1  O=C(CCCCCCC(=O)Nc1cccnc1)NO [pyroxamide]  drug sensitivity score            4.2
2  CN(C)c1ccccc1CN1CCCN(Cc2ccccc2N(C)C)C1c1ccncc1  drug sensitivity score              0
3    Cc1cc(O)c2c(c1)C(=O)c1cc(O)cc(O)c1C2=O  drug sensitivity score              0
4  CC(C(=O)O)c1ccc2c(c1)Cc1cccnc1O2 (centres undefined)  drug sensitivity score              0
5  CCC(=O)c1cc(-c2ccc(Cl)cc2)n(-c2ccc(S(N)(=O)=O)cc2)c1C  drug sensitivity score              0

Enquiry: What does the data say about its drug sensitivity score? Entry: `CCOc1cc([C@@H](CS(C)(=O)=O)N2C(=O)c3cccc(NC(C)=O)c3C2=O)ccc1OC`
Return: 0

Enquiry: What does the data say about its drug sensitivity score? Entry: `NC(=O)c1cnc2[nH]ccc2c1N[C@@H]1[C@@H]2CC3C[C@H]1C[C@@](O)(C3)C2`
Return: 0

Enquiry: What does the data say about its drug sensitivity score? Entry: `CCN(CC)CCOC(=O)c1cc(Cl)c(N)cc1OC`
Return: 0

Enquiry: What does the data say about its drug sensitivity score? Entry: `CC(=O)NCCCCCC(=O)O`
Return: 0
